target: T1, human SLITRK6 on cells (human, UniProt Q9H5Y7 27-841); assay: flow cytometry on CHP-212 cells
T1 construct: whole, on cells
Listing of recorded pEC50 by entry.
Note: pEC50 values are expressed as the negative base-10 logarithm of concentration in M.

Inquiry: Could you tell me which pEC50 is on file for phA108 (antibody, V domains shown, From phage display, then full-length construction; Only the variable regions are tied to the name) VH: QVQLVQSGAEVKKPGASVKVSCTASGYIFNDYYLHWVRQAPGQGLEWVGIINPSGGSPVYAQKFQGRVTMTRDTSTNTVYMELSSLRSEDTAVYYCARGMVRGVRLFDYWGQGTLVTVSA VL: EIVLTQSPATLSLSPGERATLSCRASQSVSSYLAWYQQKPGQTPRLLIYDASNRATGVPARFSGSGSGTDFTLTISSLETEDFAVYYCQQRTNWPLTFGGGTKVEIK ?
Reply text: 9.85

Inquiry: Could you tell me which pEC50 is on file for Sirtratumab (antibody, V domains shown, Prior-art benchmark antibody; also called Sirtratuzumab) VH: QVQLVESGGGVVQPGRSLRLSCAASGFTFSSYGMHWVRQAPGKGLEWVAVIWYDGSNQYYADSVKGRFTISRDNSKNTLFLQMHSLRAEDTAVYYCARGLTSGRYGMDWGQGTTVTVSS VL: DIVMTQSPLSLPVTPGEPASISCRSSQSLLLSHGFNYLDWYLQKPGQSPQLLIYLGSSRASGVPDRFSGSGSGTDFTLKISRVEAEDVGLYYCMQPLQIPWTFGQGTKVEIK ?
Reply text: 9.68

Inquiry: Could you tell me which pEC50 is on file for phA290 (antibody, V domains shown, From phage display, then full-length construction; Only the variable regions are tied to the name) VH: QVQLVQSGAEVKKPGASVKVSCKASGYTFTSYYMHWVRQAPGQGLEWMGIINPSGGSTSYAQKFQGRVTMTRDTSTSTVYMELSSLRSEDTAVYYCARGFTRYFDYWGQGTLVTVSA VL: EIVMTQSPGTLSLSPGERATLSCRASQSVSKYLAWYQQRPGQAPRLLIYDASNRATGIPARFSGSGSGTDFTLTVSSLEPEDFAVYYCQQRYNWPLTFGGGTTVEIK ?
Reply text: 9.85

Inquiry: Could you tell me which pEC50 is on file for hu1H2-13 (antibody, V domains shown) VH: EVQLVESGGGLVQPGGSLRLSCAASGFTFSDYGLHWVRQAPGKGLEWVAYISSGSSTVYFADTLKGRFTISRDNAKNSLYLQMNSLRAEDTAVYYCTRGTWYFDVWGRGTLVTVSS VL: DIQMTQSPSSLSASVGDRVTITCRTSENIHSYLAWYQQKPGKSPQLLVYNAKTLADGVPSRFSGSGSGTDYTLTISSLQPEDFGTFYCQHFWTTSRTFGGGTKVEIK ?
Reply text: 9.66

Inquiry: Could you tell me which pEC50 is on file for hu14G1-03 (antibody, V domains shown) VH: EVQLVESGGGLVQPGGSLRLSCAASGFTFSDYGMHWVRQAPGKGLEWVSYISPGSSTIYYADTMKGRFTISRDNAKNSLYLQMNSLRAEDTAVYYCARAYGGSYWYFAVWGQGTLVTVSS VL: DIQMTQSPSSLSASVGDRVTITCRASGNIHSYLAWYQQKPGKSPQLLVYNAKTLADGVPSRFSGSGSGTDYTLTISSLQPEDFGTYYCQHFWSTPYTFGGGTKLEIK ?
Reply text: 9.48

Let's switch to this binder now.
Inquiry: Could you tell me which pEC50 is on file for hu1H2-03 (antibody, V domains shown, see m20) VH: EVQLVESGGGLVQPGGSLRLSCAASGFTFSDYGLHWVRQAPGKGLEWVSYISSGSSTVYFADTLKGRFTISRDNAKNSLYLQMNSLRAEDTAVYYCTRGTWYFDVWGRGTLVTVSS VL: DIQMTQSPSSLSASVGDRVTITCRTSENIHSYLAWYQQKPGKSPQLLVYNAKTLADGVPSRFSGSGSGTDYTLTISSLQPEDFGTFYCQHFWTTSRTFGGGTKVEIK ?
Reply text: 9.66
